Test system: HepG2
Assay: cell viability relative to DMSO; higher = less toxic
Conditions: 72 h; 1000 nM

>  <compound>
COc1ccc(C(=O)Nc2sc3c(c2C(N)=O)CCCC3)cc1OC

>  <cell viability / %>
97.6

$$$$
>  <compound>
CC(=O)Nc1ccc(Cc2ccc(NC(C)=O)cc2)cc1

>  <cell viability / %>
102

$$$$
>  <compound>
O=C(COc1ccc(Cl)cc1)N1CCN(Cc2ccc3c(c2)OCO3)CC1 [fipexide]

>  <cell viability / %>
93.8

$$$$
>  <compound>
CCOc1ccccc1C(N)=O [ethenzamide]

>  <cell viability / %>
102

$$$$
>  <compound>
c1cncc(CN2CCC(n3ncc4c(N5CCOCC5)nc(-c5ccc6[nH]ccc6c5)nc43)CC2)c1

>  <cell viability / %>
72.2

$$$$
>  <compound>
CC(C)(C)NC(=O)N[C@H](C(=O)N1C[C@H]2[C@@H]([C@H]1C(=O)NC(CC1CCC1)C(=O)C(N)=O)C2(C)C)C(C)(C)C (stereo partly drawn)

>  <cell viability / %>
93.7

$$$$
>  <compound>
CNCCCCOc1ccccc1Cc1ccccc1

>  <cell viability / %>
92.7

$$$$
>  <compound>
CCn1nc(C)c2c1C(c1ccccc1)=NCC(=O)N2

>  <cell viability / %>
92.2

$$$$
>  <compound>
CN[C@H](CC(=O)O)C(=O)O

>  <cell viability / %>
104

$$$$
>  <compound>
CC1=C(C(=O)OC2CCCCC2)C(c2ccc([N+](=O)[O-])cc2)C2=C(CC(C)(C)CC2=O)N1 (stereo not drawn)

>  <cell viability / %>
108

$$$$
>  <compound>
CCCCNC(=O)[C@@H]1Cc2ccccc2N1C(=O)[C@@H](N)CC [butabindide]

>  <cell viability / %>
108

$$$$
>  <compound>
COCCc1ccc(OCC(O)CNC(C)C)cc1 (stereo not drawn)

>  <cell viability / %>
79.7

$$$$
>  <compound>
Cc1c[nH]c(=O)n(CCCN2CCN(c3ccccc3OCC(F)(F)F)CC2)c1=O

>  <cell viability / %>
98.2

$$$$
>  <compound>
O=C1c2c(O)cc(O)cc2O[C@H](c2ccc(O)c(O)c2)[C@H]1O

>  <cell viability / %>
100

$$$$
>  <compound>
CCCn1c(=O)c2[nH]cnc2n(-c2ccc(Cl)cc2)c1=O

>  <cell viability / %>
100

$$$$
>  <compound>
CC1=C(CC(=O)O)c2cc(F)ccc2/C1=C\c1ccc([S+](C)[O-])cc1 (stereo not drawn)

>  <cell viability / %>
84

$$$$
>  <compound>
O=C1CC2(CCCC2)CC(=O)N1CCCCNC[C@H]1COc2ccccc2O1 (racemic)

>  <cell viability / %>
101

$$$$
>  <compound>
CCOc1cc2ncc(C#N)c(Nc3ccc(OCc4cccc(F)c4)c(Cl)c3)c2cc1NC(=O)/C=C/CN(C)C

>  <cell viability / %>
90.9

$$$$
>  <compound>
Oc1ccc2c3c1O[C@H]1c4[nH]c5ccccc5c4C[C@@]4(O)[C@@H](C2)N(CC2CC2)CC[C@]314

>  <cell viability / %>
106

$$$$
>  <compound>
CCCC(=O)O[C@]1(C(=O)CCl)[C@@H](C)C[C@H]2[C@@H]3CCC4=CC(=O)C=C[C@]4(C)[C@@]3(F)C(=O)C[C@@]21C [clobetasone-butyrate]

>  <cell viability / %>
90.3

$$$$
>  <compound>
O=S1(=O)N[C@H]2CCCN2c2ccccc21

>  <cell viability / %>
104

$$$$
>  <compound>
CCOC1O[C@H]([C@@H](COCc2ccccc2)OCc2ccccc2)[C@H](OCc2ccccc2)[C@H]1O (stereo partly drawn) [tribenoside]

>  <cell viability / %>
92.6

$$$$
>  <compound>
N[C@@H](C(=O)O)c1cc(O)cc(O)c1 [dihydroxyphenylglycine]

>  <cell viability / %>
98.2

$$$$
>  <compound>
C[C@H](NC(=O)CNC(=O)c1cccc(Cl)c1)c1ccccc1

>  <cell viability / %>
98.6

$$$$
>  <compound>
NC(=O)Nc1sc(-c2ccc(F)cc2)cc1C(N)=O

>  <cell viability / %>
80.6

$$$$
>  <compound>
O=[N+]([O-])c1cccc2cn[nH]c12

>  <cell viability / %>
99.2

$$$$
>  <compound>
O=C(NCCCN1CCC2(CC1)OCc1ccccc12)[C@H]1CCCN1Cc1ccccc1

>  <cell viability / %>
98.7

$$$$
>  <compound>
CC(=O)Nc1nnc(S(N)(=O)=O)s1 [acetazolamide]

>  <cell viability / %>
105

$$$$
>  <compound>
OC[C@H]1O[C@@H](OCCc2ccc(O)cc2)[C@H](O)[C@@H](O)[C@@H]1O [salidroside]

>  <cell viability / %>
87

$$$$
>  <compound>
C[C@H](Cc1cc2c(c(C(N)=O)c1)N(CCCO)CC2)NCCOc1ccccc1OCC(F)(F)F

>  <cell viability / %>
102

$$$$
>  <compound>
COc1cc2c(cc1O)C(CCc1ccc(Cl)cc1)N(C)CC2 (stereo not drawn)

>  <cell viability / %>
99

$$$$
>  <compound>
Oc1ccc2c3c1O[C@H]1c4oc5ccccc5c4C[C@@]4(O)[C@@H](C2)N(CC2CC2)CC[C@]314

>  <cell viability / %>
99.7

$$$$
>  <compound>
O=C(O)C(Cl)Cl [dichloroacetate]

>  <cell viability / %>
93.2

$$$$
>  <compound>
Cc1nccc2[nH]c(=O)ccc12

>  <cell viability / %>
96.8

$$$$
>  <compound>
CN(C)CCc1c[nH]c2ccc(Cn3cncn3)cc12

>  <cell viability / %>
92.8

$$$$
>  <compound>
Cc1ccc2c(N3CCN(CCc4cccc(N5CCNC5=O)c4)CC3)cccc2n1

>  <cell viability / %>
92.8

$$$$
>  <compound>
Cc1ccc(N(CC2=NCCN2)c2cccc(O)c2)cc1

>  <cell viability / %>
106

$$$$
>  <compound>
Cc1ccc(S(=O)(=O)NCc2ccccc2)cc1

>  <cell viability / %>
110

$$$$
